B1: KRT15 (parent)
chain: SNFHINVEESVDGQVVSSHKREI

- Variants of: B1
- testDetails: protein stability index of a GFP-peptide fusion (GPS, HEK-293T) (PSI 1-6); higher = more stable;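 also: lentivirally expressed fusions sorted by FACS into six bins by GFP to DsRed ratio, PSI derived from sequencing read proportions per bin multiplied by bin number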
- conditionsUsed: c terminus: native
Assign protein stability index to each entry below.
// print number alone

Given N2K , state its recorded protein stability index.
1.36

Quick one: H19Y
3.48

Please answer likewise for H4G
2.5

And I23M ?
2.52

Can you check V15G next?
2.67

Further, for Q14F ?
1.99

Please do the same for V11W as well.
1.86

Subsequent entry: S1Y
1.23

Now consider G13Y and answer again.
2.59

// repeat for Q14P and report
2.34

Please give the result for N6M too.
2.11
